All figures here come from paper PMC5645029.

Measurement Target: mouse melanocortin-5 receptor (mouse) (UniProt P41149)
Sequence (P41149 whole entry): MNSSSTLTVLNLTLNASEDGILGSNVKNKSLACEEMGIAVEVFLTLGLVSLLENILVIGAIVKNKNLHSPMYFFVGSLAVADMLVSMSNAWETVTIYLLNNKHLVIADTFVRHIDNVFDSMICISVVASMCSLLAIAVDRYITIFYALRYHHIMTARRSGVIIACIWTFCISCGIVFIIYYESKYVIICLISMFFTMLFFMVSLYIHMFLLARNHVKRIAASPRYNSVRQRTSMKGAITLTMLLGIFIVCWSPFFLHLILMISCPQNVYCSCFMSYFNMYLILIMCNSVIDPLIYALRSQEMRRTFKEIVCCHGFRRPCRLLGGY
Non-standard residues stand in square brackets, D forms with d.
Measurement Label: agonist EC50 (cAMP AlphaScreen, HEK293 cells stably expressing the receptor)

Reported agonist EC50 (cAMP AlphaScreen, HEK293 cells stably expressing the receptor) ( cyclo(PRFFNHF[dP]) (SMILES N=C(N)NCCC[C@@H]1NC(=O)[C@@H]2CCCN2C(=O)[C@H]2CCCN2C(=O)[C@H](Cc2ccccc2)NC(=O)[C@H](Cc2c[nH]cn2)NC(=O)[C@H](CC(N)=O)NC(=O)[C@H](Cc2ccccc2)NC(=O)[C@H](Cc2ccccc2)NC1=O) [c[Pro-Arg-Phe-Phe-Asn-His-Phe-DPro]] ) = > 100 µM

Reported agonist EC50 (cAMP AlphaScreen, HEK293 cells stably expressing the receptor) ( cyclo(PRFFFAF[dP]) (SMILES C[C@@H]1NC(=O)[C@H](Cc2ccccc2)NC(=O)[C@H](Cc2ccccc2)NC(=O)[C@H](Cc2ccccc2)NC(=O)[C@H](CCCNC(=N)N)NC(=O)[C@@H]2CCCN2C(=O)[C@H]2CCCN2C(=O)[C@H](Cc2ccccc2)NC1=O) [c[Pro-Arg-Phe-Phe-Phe-Ala-Phe-DPro]] ) = > 100 µM

Reported agonist EC50 (cAMP AlphaScreen, HEK293 cells stably expressing the receptor) ( cyclo(PRFFNLF[dP]) (SMILES CC(C)C[C@@H]1NC(=O)[C@H](CC(N)=O)NC(=O)[C@H](Cc2ccccc2)NC(=O)[C@H](Cc2ccccc2)NC(=O)[C@H](CCCNC(=N)N)NC(=O)[C@@H]2CCCN2C(=O)[C@H]2CCCN2C(=O)[C@H](Cc2ccccc2)NC1=O) [c[Pro-Arg-Phe-Phe-Asn-Leu-Phe-DPro]] ) = > 100 µM

Reported agonist EC50 (cAMP AlphaScreen, HEK293 cells stably expressing the receptor) ( cyclo(PRFFNEF[dP]) (SMILES N=C(N)NCCC[C@@H]1NC(=O)[C@@H]2CCCN2C(=O)[C@H]2CCCN2C(=O)[C@H](Cc2ccccc2)NC(=O)[C@H](CCC(=O)O)NC(=O)[C@H](CC(N)=O)NC(=O)[C@H](Cc2ccccc2)NC(=O)[C@H](Cc2ccccc2)NC1=O) [c[Pro-Arg-Phe-Phe-Asn-Glu-Phe-DPro]] ) = > 100 µM
